Just for reference, PubChem BioAssay (NCATS) is where these values come from.

# Assay text: Cellular viability qHTS for adrenocortical cancer (ACC) cell line SW-13 (AID 1963989); note: potency is the fitted concentration of half-maximal effect; nearly all actives have a fitted effect of over 65% in size
# Assay conditions: SW-13 ACC cells viability, CellTiter-Glo, 48 h
# Description: PI: Naris Nilubol, MD Surgical Oncology Program, National Cancer Institute (NCI) National Institute of Health (NIH), Bethesda, Maryland Adrenocortical cancer (ACC) is a rare malignancy with poor survival outcomes and few treatment options. Currently, mitotane is the only FDA-approved therapy for ACC. […] Through a quantitative high-throughput drug screen (qHTS), we identified auranofin (AF), a thioredoxin reductase (TXNRD) inhibitor, as a promising candidate drug. […]
Results filed as inconclusive are left out. Active and inactive are the calls of the source. Calls come from the whole dose curve; as a rule, active = well fitted cell-killing curve with a large enough effect; inconclusive = small, poorly fitted or top-dose-only effect; inactive = flat fitted curve, though single readings scatter. Numbered stars: 1 amine (or outer) side, 2 acyl side, 3 side chain; on linkers, the order of the positions; unused ones are H or OH. Bridge positions count the residues as written; N and C are the ends. Square brackets hold non-standard residues; d marks the D form. Peptide text beside a SMILES is read from it. I, II: the chains in the order shown. Actinocin(9to1) = Cc1c2oc3c(C)ccc(C(=O)[*:1])c3nc-2c(C(=O)[*:2])c(N)c1=O; NMeV = CN[CH](C(=O)O)C(C)C; Sar = CNCC(=O)O
Here, each record is paired with measured Potency data.

>  <Compound>
Cc1c2oc3c(C)ccc(C(=O)NC4C(=O)NC(C(C)C)C(=O)N5CCCC5C(=O)N(C)CC(=O)N(C)C(C(C)C)C(=O)OC4C)c3nc-2c(C(=O)NC2C(=O)NC(C(C)C)C(=O)N3CCCC3C(=O)N(C)CC(=O)N(C)C(C(C)C)C(=O)OC2C)c(N)c1=O (stereo unspecified) (I: TVP[Sar][NMeV] / II: TVP[Sar][NMeV]; ester I:1-I:C, II:1-II:C; linker I:N-II:N via Actinocin(9to1); configuration not given here)

>  <Result>
0.009 µM (active)

$$$$
>  <Compound>
COC(=O)Nc1cc(Nc2cc(NC3CC3)c3ncc(C#N)n3n2)c(Cl)c(N2CCN(C)CC2)c1

>  <Result>
2.82 µM (active)

$$$$

Task item: What does the data say about its Potency? Entry: `COc1cc2ncnc(Nc3ccc(O)c(Br)c3)c2cc1OC`
Reply: 3.55 µM (active)

Task item: If you can, please state the reported Potency value of `OC1(c2ccc(Cl)c(C(F)(F)F)c2)CCN(CCCC(c2ccc(F)cc2)c2ccc(F)cc2)CC1` .
Reply: 4.11 µM (active)

Task item: State the recorded Potency for this entry: `COc1cc2c3c(n(CCCn4ccnc4)c(=O)c2cc1OC)-c1cc2c(cc1C3=O)OCO2`
Reply: 0.0316 µM (active)

Task item: Report Potency for `CN1CCC(CNc2ccc3ncc(-c4cccc(OC(F)(F)F)c4)n3n2)CC1` please.
Reply: 15.8 µM (active)

Task item: Fill in: Potency of `COc1ccc(S(=O)(=O)Nc2cccnc2Nc2ccc(O)cc2)cc1` is ___
Reply: 3.16 µM (active)

Task item: Can you look up the measured Potency of OCCNC1CCCc2c1[nH]c1ccc(-c3ccccc3)cc21 (stereo unspecified) for me?
Reply: 15.8 µM (active)

Task item: Query (compound): `O=S(=O)(Nc1ccc(-c2cccnc2)c2cccnc12)c1cccc(C(F)(F)F)c1` ; field requested: Potency
Reply: 4.47 µM (active)
